- Target of assay: mouse HER2 (23-653) (Mus musculus, UniProt P70424)
- Assay info: TR-FRET competition assay for peptide potency, mouse HER2
- Type: binding
- Set-up: mouse HER2 (23-653) using a Cy5 labeled peptide as a probe; made in house; host or cells: mammalian cells
- Settings: TR-FRET competition with Cy5 labeled peptide probe, 0.1 nM mouse HER2, 24 h incubation; read-out: moHER2 TR-FRET IC50
pIC50: −log10 of the molar value. Positions of bridges follow the written chain, without caps; N, C: chain ends. Non-standard residues stand in square brackets, D forms with d. Residues, ends and D or L forms follow the SMILES beside them. Trp(5-OH) = N[C@@H](Cc1c[nH]c2ccc(O)cc12)C(=O)O; NMePhe(4-F) = CN[C@@H](Cc1ccc(F)cc1)C(=O)O; NMehPhe = CN[C@@H](CCc1ccccc1)C(=O)O; Aad = N[C@@H](CCCC(=O)O)C(=O)O; Gly(cPr) = N[C@H](C(=O)O)C1CC1; NMeDap = CN[C@@H](CN)C(=O)O; NMeS = CN[C@@H](CO)C(=O)O

{"columns": ["Molecule", "pIC50"],
 "data": [
  ["CC(=O)N[C@H]1CCCC(=O)NC[C@@H](C(=O)N(C)[C@@H](Cc2ccc(F)cc2)C(N)=O)N(C)C(=O)[C@H](C2CC2)NC(=O)[C@H](Cc2c[nH]c3ccccc23)NC(=O)[C@H](Cc2c[nH]c3ccc(O)cc23)NC(=O)[C@H](CO)N(C)C(=O)[C@H](CCc2ccccc2)N(C)C(=O)[C@H](CO)NC(=O)[C@H](Cc2ccc(O)cc2)NC1=O [Example A29] (Ac-[Aad]YS[NMehPhe][NMeS][Trp(5-OH)]W[Gly(cPr)][NMeDap][NMePhe(4-F)]-NH2; lactam 1-9)", 7.28]
]}
